Measured pIC50, listed per entry.
- Tgt: LRRK2 WT (Homo sapiens, UniProt Q5S007)
- Construct: purchased Life Technologies PR8604B
- Sequence (Q5S007 whole entry): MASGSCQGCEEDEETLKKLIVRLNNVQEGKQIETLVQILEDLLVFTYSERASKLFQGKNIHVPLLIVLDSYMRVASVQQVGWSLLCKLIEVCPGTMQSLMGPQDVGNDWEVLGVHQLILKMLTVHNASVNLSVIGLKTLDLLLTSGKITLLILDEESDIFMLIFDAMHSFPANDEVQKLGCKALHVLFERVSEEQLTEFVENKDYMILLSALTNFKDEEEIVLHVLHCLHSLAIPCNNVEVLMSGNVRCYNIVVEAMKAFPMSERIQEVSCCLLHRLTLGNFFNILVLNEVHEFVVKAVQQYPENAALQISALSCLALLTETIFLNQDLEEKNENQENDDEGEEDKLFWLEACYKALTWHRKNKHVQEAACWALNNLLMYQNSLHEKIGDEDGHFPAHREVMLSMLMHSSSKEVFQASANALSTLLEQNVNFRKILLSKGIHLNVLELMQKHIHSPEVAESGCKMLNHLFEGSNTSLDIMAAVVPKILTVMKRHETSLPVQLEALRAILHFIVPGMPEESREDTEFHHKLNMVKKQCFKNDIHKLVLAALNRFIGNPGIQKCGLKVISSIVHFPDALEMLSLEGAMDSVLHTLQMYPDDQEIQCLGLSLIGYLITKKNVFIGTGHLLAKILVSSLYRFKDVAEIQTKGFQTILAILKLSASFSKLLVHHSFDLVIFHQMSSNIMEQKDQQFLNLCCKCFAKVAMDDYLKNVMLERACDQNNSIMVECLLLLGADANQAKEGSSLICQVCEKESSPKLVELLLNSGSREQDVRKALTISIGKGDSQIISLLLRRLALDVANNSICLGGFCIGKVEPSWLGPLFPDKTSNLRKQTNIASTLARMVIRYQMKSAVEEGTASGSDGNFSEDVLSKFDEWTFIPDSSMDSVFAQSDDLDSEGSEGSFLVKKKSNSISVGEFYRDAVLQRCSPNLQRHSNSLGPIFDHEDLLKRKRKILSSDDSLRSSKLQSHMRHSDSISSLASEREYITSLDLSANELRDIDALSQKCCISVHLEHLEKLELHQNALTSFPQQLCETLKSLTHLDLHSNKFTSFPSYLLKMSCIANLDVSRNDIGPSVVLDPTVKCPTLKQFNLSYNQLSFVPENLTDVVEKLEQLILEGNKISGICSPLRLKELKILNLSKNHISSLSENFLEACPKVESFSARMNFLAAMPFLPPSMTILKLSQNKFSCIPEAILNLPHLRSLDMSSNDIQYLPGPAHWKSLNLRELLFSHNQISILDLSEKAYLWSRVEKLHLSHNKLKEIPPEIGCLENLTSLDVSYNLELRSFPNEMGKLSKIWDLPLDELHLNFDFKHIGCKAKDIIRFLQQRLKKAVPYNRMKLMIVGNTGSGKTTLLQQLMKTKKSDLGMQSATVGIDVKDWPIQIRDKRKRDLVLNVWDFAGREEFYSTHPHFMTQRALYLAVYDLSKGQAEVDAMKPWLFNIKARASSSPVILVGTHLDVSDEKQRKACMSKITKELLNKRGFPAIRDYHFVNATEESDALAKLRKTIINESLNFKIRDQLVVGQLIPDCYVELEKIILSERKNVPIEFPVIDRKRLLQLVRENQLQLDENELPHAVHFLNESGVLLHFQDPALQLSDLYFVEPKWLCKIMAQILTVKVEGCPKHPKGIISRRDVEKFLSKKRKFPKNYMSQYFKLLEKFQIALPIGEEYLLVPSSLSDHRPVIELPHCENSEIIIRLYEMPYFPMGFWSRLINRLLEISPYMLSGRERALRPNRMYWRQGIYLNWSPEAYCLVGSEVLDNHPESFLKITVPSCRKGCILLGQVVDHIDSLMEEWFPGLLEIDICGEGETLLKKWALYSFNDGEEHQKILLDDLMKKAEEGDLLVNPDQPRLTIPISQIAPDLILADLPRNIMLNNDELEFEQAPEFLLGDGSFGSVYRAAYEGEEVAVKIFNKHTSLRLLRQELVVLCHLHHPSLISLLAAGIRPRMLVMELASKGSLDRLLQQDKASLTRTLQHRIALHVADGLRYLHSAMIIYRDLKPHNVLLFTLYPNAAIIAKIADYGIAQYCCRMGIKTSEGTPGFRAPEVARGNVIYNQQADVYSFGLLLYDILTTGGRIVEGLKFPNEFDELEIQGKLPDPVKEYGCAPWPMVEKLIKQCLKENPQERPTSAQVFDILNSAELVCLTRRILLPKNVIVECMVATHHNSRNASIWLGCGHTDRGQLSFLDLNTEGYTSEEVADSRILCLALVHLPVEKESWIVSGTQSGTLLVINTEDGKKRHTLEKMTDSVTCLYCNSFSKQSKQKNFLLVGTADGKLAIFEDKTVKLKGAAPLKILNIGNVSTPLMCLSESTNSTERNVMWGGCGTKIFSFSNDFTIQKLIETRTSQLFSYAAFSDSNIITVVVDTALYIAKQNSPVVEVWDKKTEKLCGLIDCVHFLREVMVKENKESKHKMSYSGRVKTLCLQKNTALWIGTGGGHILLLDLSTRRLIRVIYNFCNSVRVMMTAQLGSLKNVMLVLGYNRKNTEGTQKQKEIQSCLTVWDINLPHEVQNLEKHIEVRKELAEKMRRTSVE
- Assay text: LRRK2 Kinase Activity Assay (LanthaScreen TR-FRET), wild type
- Type: biochemical
- Condition description: recombinant wild type LRRK2, 25 μM ATP, 400 nM LRRKtide, 60 min; class symbols
pIC50: −log10 of the molar value.

Molecule	pIC50
COc1n[nH]c2ccc(O[C@H]3CCc4cc(C#N)c(Cl)cc43)cc12 (single isomer, unassigned) [189, enantiomer 1]	5.00 to 6.00
N#Cc1cnc2c(c1Cl)CCC[C@@H]2Nc1ccc2[nH]nc(-c3cnco3)c2c1 (single isomer, unassigned) [Example 144, enantiomer 2]	> 7.00
N#Cc1ccc2c(c1)OCC[C@@H]2Nc1ccc2[nH]nc(-c3cnoc3)c2c1 (single isomer, unassigned) [192, enantiomer 2]	> 7.00
N#Cc1cnc2c(c1)CCC[C@@H]2Nc1ccc2[nH]nc(Cl)c2c1 (single isomer, unassigned) [Example 126, enantiomer 1]	5.00 to 6.00
Cc1cc2c(cc1C#N)CC[C@H]2Oc1ccc2[nH]nc(-c3cnco3)c2c1 (single isomer, unassigned) [Example 29, enantiomer 2]	> 7.00
Cc1n[nH]c2ccc(O[C@H]3CCc4cc(C#N)ccc43)cc12 (single isomer, unassigned) [Example 1, enantiomer 2]	6.00 to 7.00
N#Cc1ccc2c(c1)CCCC[C@@H]2Nc1ccc2[nH]nc(-c3cnco3)c2c1 (single isomer, unassigned) [Example 104, enantiomer 2]	6.00 to 7.00
N#Cc1cc2c(cc1F)[C@@H](Oc1ccc3[nH]nc(-c4cnco4)c3c1)CCC2 (single isomer, unassigned) [180, enantiomer 2]	> 7.00
N#Cc1ccc2c(c1)CCC[C@@H]2Nc1ccc2[nH]nc(-c3ccc[nH]3)c2c1 (single isomer, unassigned)	6.00 to 7.00
N#Cc1ccc2c(c1)CCC[C@H]2Oc1cc2c(-c3cnco3)n[nH]c2cn1 (single isomer, unassigned) [Example 32, enantiomer 2]	> 7.00
Cc1cc2[nH]nc(-c3cnco3)c2cc1NC1CCCc2cc(C#N)cnc21 (single isomer, unassigned) [190, enantiomer 1]	> 7.00
N#Cc1ccc2c(c1)CCC[C@@H]2Nc1ccc2[nH]nc(-c3cccnc3)c2c1 (single isomer, unassigned)	> 7.00
N#Cc1cnc2c(c1)CCC[C@@H]2Oc1ccc2[nH]nc(-c3cnccn3)c2c1 (single isomer, unassigned) [Example 161, enantiomer 1]	> 7.00
Cc1c(C#N)ccc2c1CC[C@@H]2Oc1ccc2[nH]nc(-c3cnn(C(F)F)c3)c2c1 (single isomer, unassigned) [Example 50, enantiomer 2]	> 7.00
N#Cc1ccc2c(c1)CCC[C@@H]2Nc1ccc2[nH]nc(I)c2c1 (single isomer, unassigned) [Example 15, enantiomer 2]	5.00 to 6.00
COc1cc(-c2n[nH]c3ccc(O[C@H]4CCCc5cc(C#N)cnc54)cc23)ccn1 (single isomer, unassigned) [Example 123, enantiomer 2]	> 7.00
N#Cc1cnc2c(c1C(F)F)CCC[C@@H]2Nc1ccc2[nH]nc(-c3cnco3)c2c1 (single isomer, unassigned) [Example 147, enantiomer 1]	> 7.00
CS(=O)(=O)c1cccc(-c2n[nH]c3ccc(N[C@H]4CCCc5cc(C#N)ccc54)cc23)c1 (single isomer, unassigned)	> 7.00
N#Cc1ccc2c(c1)CCC[C@@H]2Nc1ccc2[nH]nc(-c3ccc4scnc4c3)c2c1 (single isomer, unassigned)	> 7.00
N#Cc1cnc2c(c1)OCC[C@@H]2Nc1ccc2[nH]nc(-c3cnco3)c2c1 (single isomer, unassigned) [194, enantiomer 2]	6.00 to 7.00
Cc1c(C#N)cnc2c1CC[C@@H]2Oc1ccc2[nH]nc(-c3cnco3)c2c1 (single isomer, unassigned) [Example 107, enantiomer 2]	6.00 to 7.00
N#Cc1cc2c(nn1)[C@@H](Oc1ccc3[nH]nc(-c4cnco4)c3c1)CC2 (single isomer, unassigned) [Example 41, enantiomer 2]	> 7.00
N#Cc1cnc2c(c1C(F)(F)F)CCC[C@@H]2Nc1ccc2[nH]nc(-c3cnco3)c2c1 (single isomer, unassigned) [Example 145, enantiomer 1]	6.00 to 7.00
N#Cc1ccc2c(c1)CC[C@@H]2Nc1cc2c(-c3cnco3)n[nH]c2cn1 (single isomer, unassigned) [Example 21, enantiomer 2]	6.00 to 7.00

Data origin, for the record: patent US20230148214A1
